Source of measurements: PubChem BioAssay AID1259407

System: CCRIS mutagenicity, Ames/micronucleus/aberration tests
Assay: CCRIS mutagenicity studies
Details: Test System: AMES SALMONELLA TYPHIMURIUM; Strain/Indicator: TA97A; Metabolic Activation: RAT LIVER S-9, AROCLOR 1254; Method: STANDARD PLATE
The source made the active and inactive calls. No rule for the calls is given here.
Your response should consist of one outcome taken from active, inactive

For this compound, state the assay outcome: `COC1=CC(=O)c2c(ncc3c4c([nH]c23)CCCC4)C1=O`
active

Answer briefly: the call reported for `CC1(C)[C@@H]2CC[C@@]1(C)C(=O)C2=O` in this assay.
inactive

// outcome(item) with item = `Cc1ccc(C)c(C)c1C`
inactive

Give the logged outcome of this assay for the following compound: `CCc1ccc(C)cc1`
inactive

---

Tested on: CCRIS mutagenicity, Ames/micronucleus/aberration tests
Test: CCRIS mutagenicity studies
Details: Test System: AMES SALMONELLA TYPHIMURIUM; Strain/Indicator: TA100; Metabolic Activation: RAT, LIVER, S-9, AROCLOR 1254 (10%); Method: PREINCUBATION
Activity calls are given as the source filed them. The rule behind the calls is not given here.
Your reply should match one of these outcome classes. Y (active), N (inactive)

Here's what some known entries look like.
>>> class_name("Cc1ccc(N)cc1")
"N"
>>> class_name("Oc1cc(Cl)c(Cl)c(Cl)c1")
"N"
>>> class_name("CCOP(=O)(OCC)OCC")
"N"
>>> class_name("CC[C@H]1CN2CCc3cc(OC)c(OC)cc3[C@@H]2C[C@@H]1C[C@H]1NCCc2cc(OC)c(OC)cc21")
"N"
>>> class_name("[Cl][Hg][Cl]")
"N"

Dear all, I need the recorded test outcome for `CCCCCCCCOP(=O)(OCCCCCCCC)OCCCCCCCC` , thank you.
N

Give the logged outcome of this assay for the following compound: `CCCCCC`
N

Tell me the recorded outcome of this test for `O=[N+]([O-])CCO` .
N

Short answer needed: outcome of this test for `COc1ccc(C(=O)/C(Br)=C\C(=O)O)cc1` ?
Y

Call for entry `Oc1c(Br)c(Br)c(Br)c(Br)c1Br` :
N

Please share the test call associated with `N[C@H](Cc1ccccc1)C(=O)O` .
N

Please indicate how the test categorized `Cc1cc(O)c(C(C)(C)C)cc1Sc1cc(C(C)(C)C)c(O)cc1C` .
N

Hi team, can someone confirm the assay call for `O=c1c2[nH]c3ccccc3c2nnn1/N=C/c1ccc(Cl)cc1` ?
Y

Answer briefly: the call reported for `CC(=O)Nc1ccccc1N` in this assay.
Y

State the result this test recorded for C=CC(C)C#N (stereo not given) .
N

---

System: CCRIS mutagenicity, Ames/micronucleus/aberration tests
Assay: CCRIS mutagenicity studies
Conditions: Test System: MOUSE LYMPHOMA; Strain/Indicator: L5178Y (TK+/TK-); Metabolic Activation: NONE; Method: SUSPENSION/PLATE
Calls of active or inactive are those of the source. The rule behind the calls is not given here.
# valid calls are 1 = active, 0 = inactive; nothing else

For orientation, consider the following solved cases.
>>> class_name("Nc1ccccc1")
1
>>> class_name("COS(C)(=O)=O")
1
>>> class_name("CN(C)c1ccc(/C=C/c2ccc([N+](=O)[O-])cc2)cc1")
0
>>> class_name("[Cl][Hg][Cl]")
1
>>> class_name("CC1(C)CCC2(C(=O)OC3OC(CO)C(O)C(O)C3O)CCC3(CO)C(=CCC4C5(C)CC(O)C(O)C(C)(C(=O)OC6OC(CO)C(O)C(O)C6O)C5CCC43C)C2C1 (stereo unspecified)")
0

Outcome logged for O=P1(N(CCCl)CCCl)NCCCO1 (stereo unspecified) in this assay:
1

---

System: CCRIS mutagenicity, Ames/micronucleus/aberration tests
Assay: CCRIS mutagenicity studies
Details: Test System: AMES SALMONELLA TYPHIMURIUM; Strain/Indicator: TA1538; Metabolic Activation: RAT LIVER S-9, PHENOBARBITAL AND BETA-NAPHTHOFLAVONE; Method: PREINCUBATION
The source made the active and inactive calls. The rule behind the calls is not given here.
experimental endpoint: mutagenic call

Observe how each entry below is paired with its result.
>>> meas_value("O=C1C(Cl)=C(Cl)C(=O)c2ccccc21")
"inactive; negative"
>>> meas_value("[B-]")
"inactive; negative"
>>> meas_value("CCOC(=O)CC(C)=O")
"inactive; negative"
>>> meas_value("OCCOCCOCCO")
"inactive; negative"

Look up and report mutagenic call, with CCRIS mutagenicity, Ames/micronucleus/aberration tests as system, for `O.O.O.O.O.[Cd+2].[Cd+2].[Cl-].[Cl-].[Cl-].[Cl-]`
inactive; negative

GET mutagenic call | system: CCRIS mutagenicity, Ames/micronucleus/aberration tests | item: `Cc1nc(N)nc(N)n1`
inactive; negative

Give the observed mutagenic call of `O=S(=O)(O)c1cc(S(=O)(=O)O)c2cc(O)ccc2c1` for CCRIS mutagenicity, Ames/micronucleus/aberration tests.
inactive; negative

For CCRIS mutagenicity, Ames/micronucleus/aberration tests, give mutagenic call of the listed compound: `NC(=Nc1ccccc1)Nc1ccccc1`
inactive; negative

Give the observed mutagenic call of `Cc1ccccc1S(N)(=O)=O` for CCRIS mutagenicity, Ames/micronucleus/aberration tests.
inactive; negative

Write mutagenic call of `O=[N+]([O-])c1cc(Cl)ccc1Cl` ; system used: CCRIS mutagenicity, Ames/micronucleus/aberration tests
inactive; negative

---

System: CCRIS mutagenicity, Ames/micronucleus/aberration tests
Test: CCRIS mutagenicity studies
Settings: Test System: AMES SALMONELLA TYPHIMURIUM; Strain/Indicator: TA98; Metabolic Activation: RAT, LIVER, S-9, PHENOBARBITAL; Method: STANDARD PLATE
The source made the active and inactive calls. How the calls were made is not given here.
experimental endpoint: mutagenic call

Please review the following examples before continuing.
>>> meas_value("F")
"inactive; negative"
>>> meas_value("COP(=S)(OC)SCN1C(=O)c2ccccc2C1=O")
"inactive; negative"
>>> meas_value("COc1c2occc2cc2ccc(=O)oc12")
"inactive; negative"
>>> meas_value("COc1cc(Cc2cnc(N)nc2N)cc(OC)c1OC")
"active; positive"
>>> meas_value("C=C(C)C1Cc2c(cc(O)c3c(=O)c4ccccc4n(C)c23)O1 (stereo not given)")
"active; positive"
>>> meas_value("N1=NC2[C@@H]3O[C@@H]3C1[C@H]1O[C@@H]21")
"inactive; negative"
>>> meas_value("Nc1ccc2c(c1)[nH]c1ccccc12")
"active; positive"
>>> meas_value("COc1cc2c(c3oc4cccc(O)c4c(=O)c13)[C@@H]1CCO[C@@H]1O2")
"inactive; negative"
>>> meas_value("COc1c2ccoc2nc2c(OC)c(OCC3OC3(C)C)ccc12 (stereo not given)")
"inactive; negative"
>>> meas_value("C1=CC2OC2C=CO1 (stereo not given)")
"inactive; negative"

Supply recorded mutagenic call for `COc1ccc(O)c2c(=O)c3c(OC)cc4c(c3oc12)[C@@H]1C=CO[C@@H]1O4` here.
inactive; negative

// fetch mutagenic call given entry `CC(=O)Nc1ccc2[nH]c3ccccc3c2c1[N+](=O)[O-]`
active; positive

Tell me mutagenic call reported for Cn1c2ccccc2c(=O)c2c(O)cc3c(c21)CC(C1(C)CO1)O3 (stereo not given)
active; positive

Identify measured mutagenic call corresponding to COc1cccc2c1CC([N+](=O)[O-])c1ccc3c(c1-2)OCO3 (stereo not given)
active; positive

Respond only with mutagenic call recorded for `Nc1cccc2cc3ccccc3cc12`
active; positive

---

Tested on: CCRIS mutagenicity, Ames/micronucleus/aberration tests
Experiment: CCRIS mutagenicity studies
Conditions: Test System: AMES SALMONELLA TYPHIMURIUM; Strain/Indicator: TA98; Metabolic Activation: RAT LIVER S-9, PCB; Method: PREINCUBATION
Calls of active or inactive are those of the source. How the calls were made is not given here.
Answer with one of the outcomes given here: Yes = active, No = inactive

Recorded results for 4 compounds are shown here.
>>> class_name("O=C(Cl)Cc1ccccc1")
"Yes"
>>> class_name("O=Cc1cccc(Cl)c1Cl")
"No"
>>> class_name("O=C(Cl)c1ccccc1Cl")
"Yes"
>>> class_name("O=C(O)c1cc(Cl)ccc1Cl")
"No"

Can you look up the reported call for O=C(Cl)C(Cl)c1ccccc1 (stereo unspecified) for me?
Yes

Hi team, can someone confirm the assay call for `Cc1ccc(C(=O)Cl)cc1` ?
No

---

System: CCRIS mutagenicity, Ames/micronucleus/aberration tests
Test: CCRIS mutagenicity studies
Details: Test System: AMES SALMONELLA TYPHIMURIUM; Strain/Indicator: TA102; Metabolic Activation: NONE; Method: STANDARD PLATE
Active and inactive are the calls of the source. How the calls were made is not given here.
Use one of these outcomes when replying: active, inactive

>>> class_name("COC1=CC(=O)c2c(ncc3c4c([nH]c23)CCCC4)C1=O")
"inactive"
>>> class_name("COc1cccc2c1C(=O)c1c(O)c3c(c(O)c1C2=O)C[C@@](O)(C(C)=O)C[C@@H]3O[C@H]1C[C@H](N)[C@H](O)[C@H](C)O1")
"active"
>>> class_name("CC(O)CN(C)c1ccc(NN)nn1 (stereo not drawn)")
"active"
>>> class_name("O=C(O)c1cc(O)c2c(c1)C(=O)c1cccc(O)c1C2=O")
"inactive"
>>> class_name("NCCc1cnc[nH]1")
"inactive"

Hey, what did the test say about `COc1cc(Cc2cnc(N)nc2N)cc(OC)c1OC` ?
inactive

Each compound tested received a call. Report the one for `COO` .
active

Query: recorded result category for `CC/C=C/C=C/C=C/C=C/C=C/OC[C@@H](O)CO` in this test
active

Which outcome was entered for the compound `O=C1O[C@H]([C@@H](O)CO)C(O)=C1O` in this test?
inactive

Per the assay record, what outcome was assigned to `CC(C)[C@]12CC(=O)[C@H](C)[C@H]1C2` ?
inactive

Assay result, entry `COC(=O)c1cc2c(c3c1ccc1c(OC)cccc13)OCO2` — outcome?
active
